Data provenance is PubChem BioAssay (NCI).

We begin with a simple list: items and their reported growth.
# Tested on: SNB-19 CNS
# assay_summary: NCI-60 one-dose screen, 48 h (100 = growth as untreated, 0 = no growth, -100 = all killed)
# experimental_setup: 10 µM unless noted
Compounds without any hit were thinned out: in the full panel of roughly 83,000, 20% have a hit.
Write the number in % without appending the unit.

Solved cases below.
molecule | study_target | unit_label | test_value
O=C1Nc2ccc(Cl)cc2/C1=C/c1ccc(OCc2ccc(F)cc2)cc1 | SNB-19 CNS | % | 99.1
CCC(CC)N1C(=O)/C(=c2\sc3n(c2=O)C2C(NN=3)N(CC)C(=O)N2CC)c2ccccc21 (centres undefined) | SNB-19 CNS | % | 26.4
CNC(=O)c1cc(Oc2ccc3nc(NC(=O)c4ccc(CN5CCN(C)CC5)c(C(F)(F)F)c4)sc3c2)ccn1 | SNB-19 CNS | % | 75.9
COc1cnc2c(c1)C(=O)c1c-2n(CCCn2ccnc2)c(=O)c2cc(OC)c(OC)cc12 | SNB-19 CNS | % | 14.9
O=C1c2c(c3c4cccnc4[nH]c3c3ccc4ccccc4c23)C(=O)N1CCN1CCCCC1 | SNB-19 CNS | % | 41.1
CC(C)SC1=NC(=C(C(=N1)NC2=ClC=CC=C2)C#N)C3=CC=CC=C3 | SNB-19 CNS | % | 69.5

[in] Complete the entry with growth for O=c1oc2ccc(-c3ccc(F)cc3F)cc2c(=O)n1-c1cccc(C(F)(F)F)c1
[out] 9.99

[in] Complete the entry with growth for C=CCn1c(SCC(=O)Nc2cccc(C(=O)/C=C/c3ccccc3)c2)nc2ccccc2c1=O
[out] 77.1

[in] Complete the entry with growth for CC(=O)Oc1ccc(CCN2C(=O)CSC2=S)cc1
[out] 94.9

[in] Complete the entry with growth for Cn1cc2c(c1)-c1c(sc3nc(-c4ccc(NC(=O)Nc5cc(C(C)(C)C)on5)cc4)cn13)CC2
[out] 46.7

[in] Complete the entry with growth for CC(C)C(=O)Nc1ccc(-c2nc(-c3cccc(O)c3)c(-c3ccnc(Br)c3)[nH]2)cc1
[out] 47

[in] Complete the entry with growth for CCCCCc1ccc(S(=O)(=O)N(C(C)=O)c2cccc(-c3csc(N(CCN4CCN(C)CC4)C(C)=O)n3)c2)cc1
[out] 60.6

* * *

# Tested on: BT-549 breast
# assay_summary: NCI-60 one-dose screen, 48 h
# experimental_setup: 10 µM unless noted
About 83,000 compounds went through this panel and 20% of them were active in at least one assay; those are over-represented in the sample as a whole. The source made the active and inactive calls. Rule for the calls: active = growth percent below 10; inactive = the rest.
Give your call using only these classes: active, inactive

Answered cases to consult:
compound | study_target | cat
O=C1c2c(c3c4ccc(Br)cc4oc3c3[nH]c4ccccc4c23)C(=O)N1CCO | BT-549 breast | inactive
CS(=O)(=O)c1ccc(-c2nn(-c3ccccc3)cc2/C=C/C(=O)c2ccc(Br)cc2)cc1 | BT-549 breast | inactive

[in] I'd appreciate the recorded outcome for CNC(=O)c1c(NC(=O)c2ccc(F)cc2F)sc2c1CCC(=O)C2 from this test.
[out] active

* * *

# Test system: LOX IMVI melanoma
# assay_summary: NCI-60 one-dose screen, 48 h (100 = growth as untreated, 0 = no growth, -100 = all killed)
# experimental_setup: 10 µM unless noted
This is part of a sample that, as a whole, favours compounds with a hit. Of some 83,000 tested, about 20% had one in any assay.
We begin with a simple list: items and their reported growth.
Write the number in % without appending the unit.

Solved cases below.
molecule | unit_label | growth
CC(C)(C)CC(C)(C)n1nnnc1C(Nc1ccccc1)c1cc2cccc3ccc4cccc1c4c32 (configuration not stated) | % | 85.1
COc1ccc([C@@H]2[C@@H](O)C(=O)N2c2cc(OC)c(OC)c(OC)c2)cc1Cl | % | 18.5
COc1cc2c3c(n(CCCNC4CCCC4)c(=O)c2cc1OC)-c1cc2c(cc1C3=O)OCO2 | % | -82.3
O=C(Nc1cc(F)cc2cccnc12)c1cnc(N2CCOCC2)cn1 | % | 19.4
N/C(=N\OC(=O)CSc1nc2ccccc2s1)c1ccc2ccccc2c1 | % | 99.8
Cc1ccc(-c2cc(-c3ccc(N(C)C)cc3)n3c(n2)nc2ccccc23)cc1 | % | 83.5
CCCCCCNC(=O)Oc1ccc(/C(=C(/C)c2ccc(Cl)cc2)c2ccc(OCCN3CCCC3)cc2)cc1 | % | -98.6
C#Cc1ccc(NC(=O)c2ccc(/C=C/C(=O)c3nccn3C)cc2)c(F)c1 | % | -60.8

[in] Complete the entry with growth for O=C(NNc1nc2cc(F)c(F)cc2n2cccc12)c1ncccn1
[out] 16.1

[in] Complete the entry with growth for O=C(NNc1nc2cc(F)c(F)cc2n2cccc12)c1cccnn1
[out] 3.83

[in] Complete the entry with growth for O=C1Nc2ccc(Cl)cc2/C1=C/c1ccc(OCc2ccc(Br)cc2F)cc1
[out] 92.7

[in] Complete the entry with growth for COc1ccc(OC)c([C@H]2c3[nH]c4ccccc4c3C[C@H]3C(=O)N(CCCCCCC(=O)NO)CC(=O)N23)c1
[out] 15
